Target: Cytochrome P450 2C9 (Homo sapiens)
Assay: Cytochrome panel assay with activity outcomes
Conditions: recombinant CYP, pro-luciferin dealkylation, luminescence, p450-cyp2c9; series mostly up to 57.1 µM
The whole screen tested about 16,000 compounds, of which about 4,000 (25%) were called active. Not shown: some 26% with an inconclusive outcome. These entries were drawn from the full list.
Entries and their AC50 values follow.

I would be grateful if you could share the reported AC50 for C/C(=N\OC(=O)NC(C)C)c1sc(-c2ccc(Cl)cc2)nc1C .
7.08 µM (active)

I would be grateful if you could share the reported AC50 for O=C(O)C(O)(c1ccc(-c2ccccc2)cc1)c1ccc(-c2ccccc2)cc1 .
3.16 µM (active)

I would be grateful if you could share the reported AC50 for CC(=O)C1=C(O)[C@@H]2[C@@H]3c4c[nH]c5cccc(c45)C[C@@H]3C(C)(C)N2C1=O .
31.6 µM (active)
